assay system: human PCSK9 / human LDLR EGFa domain interaction (Homo sapiens)
Sequence (Q8NBP7 153-692): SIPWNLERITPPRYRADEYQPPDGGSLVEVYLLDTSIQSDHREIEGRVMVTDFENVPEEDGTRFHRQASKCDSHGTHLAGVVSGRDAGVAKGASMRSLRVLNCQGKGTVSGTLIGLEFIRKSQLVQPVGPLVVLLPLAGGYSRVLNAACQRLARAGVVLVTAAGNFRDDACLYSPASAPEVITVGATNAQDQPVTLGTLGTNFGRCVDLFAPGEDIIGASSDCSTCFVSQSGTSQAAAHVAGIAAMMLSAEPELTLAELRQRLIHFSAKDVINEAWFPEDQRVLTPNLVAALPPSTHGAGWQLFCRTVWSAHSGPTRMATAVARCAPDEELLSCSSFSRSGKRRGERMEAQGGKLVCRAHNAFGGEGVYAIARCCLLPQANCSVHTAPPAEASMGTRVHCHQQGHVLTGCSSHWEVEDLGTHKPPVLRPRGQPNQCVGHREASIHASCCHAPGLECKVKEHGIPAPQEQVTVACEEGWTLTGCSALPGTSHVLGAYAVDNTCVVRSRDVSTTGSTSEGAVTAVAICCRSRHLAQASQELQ
Sequence (Q8NBP7 31-152 partner limits assumed): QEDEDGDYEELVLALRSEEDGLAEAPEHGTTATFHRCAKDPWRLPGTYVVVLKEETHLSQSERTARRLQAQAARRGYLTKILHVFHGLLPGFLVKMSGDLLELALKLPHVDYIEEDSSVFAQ
protocol details: TR-FRET assay of inhibition of the PCSK9-LDLR protein-protein interaction
condition info: 20 nM biotinylated human PCSK9 + 20 nM his-tagged human LDLR EGFa domain, 2 hours room temperature
*1 amine or outer side, *2 acyl side, *3 side chain or, on linkers, in order; H or OH if unused. Where a SMILES comes first, the peptide text is derived from it. Bridges are numbered along the chain shown (N, C = ends). [ ]: non-standard residue; d: D form. Trp(7-aza) = N[C@@H](Cc1c[nH]c2ncccc12)C(=O)O; hAad = O=C([C@H](CCCCC(=O)[*:3])N[*:1])[*:2]; Phe(4-CH2NH2) = NCc1ccc(C[C@H](N)C(=O)O)cc1; mXylylene = c1cc(C[*:1])cc(C[*:2])c1; d(aThr) = C[C@@H](O)[C@@H](N)C(=O)O; Chg = N[C@H](C(=O)O)C1CCCCC1; Tle = CC(C)(C)[C@H](N)C(=O)O; Dab = NCC[C@H](N)C(=O)O; Nva = CCC[C@H](N)C(=O)O; Mpa = O=C(O)CCS
endpoint label: IC50

Worked set:
| compound | endpoint label | result |
| --- | --- | --- |
| CCC[C@@H]1NC(=O)[C@H](Cc2c[nH]c3ncccc23)NC(=O)[C@@H]([C@@H](C)O)NC(=O)[C@@H]2CCCCC(=O)NCC[C@H](NC1=O)C(=O)N[C@@H](Cc1ccc(O)cc1)C(=O)N[C@@H](C1CCCCC1)C(=O)N[C@@H]([C@@H](C)O)C(=O)N[C@H](C(N)=O)CSCc1cccc(c1)CSCCC(=O)N[C@@H](C(C)(C)C)C(=O)N[C@@H](Cc1ccc(O)cc1)C(=O)N2 [Compound 108] ([Mpa][Tle]Y[hAad][d(aThr)][Trp(7-aza)][Nva][Dab]Y[Chg]TC-NH2; linker 1-12 via mXylylene; lactam 4-8) | IC50 | 100 to 1000 nM |
| CC1O[C@@H](C)[C@@H]2NC(=O)[C@@]1(C)NC(=O)[C@H](Cc1ccc(O)cc1)NC(=O)[C@H](C)NC(=O)C(C)(C)NC(=O)[C@H](Cc1c[nH]c3ncccc13)NC(=O)[C@H]([C@@H](C)O)NC(=O)[C@@H]1CCCN1C(=O)[C@H](Cc1ccc(O)cc1)NC(=O)[C@H](C(C)(C)C)NC(=O)CCSCc1cccc(c1)CSC[C@@H](C(N)=O)NC2=O (stereo partly drawn) [Compound 017] | IC50 | 100 to 1000 nM |

Please turn your attention to the following entry.
Would you kindly share the measured IC50 for CCC[C@@H]1NC(=O)[C@H](Cc2c[nH]c3ncccc23)NC(=O)[C@H]([C@@H](C)O)NC(=O)[C@H](Cc2cnc[nH]2)NC(=O)[C@H](Cc2ccc(O)cc2)NC(=O)[C@H](C(C)(C)C)NC(=O)[C@@H](NC(C)=O)CCC(=O)NCc2ccc(cc2)C[C@@H](C(N)=O)NC(=O)[C@H]([C@@H](C)O)NC(=O)[C@H](CCC)NC(=O)[C@H](Cc2ccc(O)cc2)NC(=O)[C@H](CCC(=O)O)NC1=O [Compound 013] (Ac-E[Tle]YHT[Trp(7-aza)][Nva]EY[Nva]T[Phe(4-CH2NH2)]-NH2; lactam 1-12) ? 100 to 1000 nM
